# T cell reporter (NFκB signaling) annotations
- TGT: full length human BTLA expressed on cells (human, UniProt Q7Z6A9 31-289)
- PROTOCOL NOTES: cell-based or functional assay; note: test concentration or dose not given here
MEASURED PROPERTY: T cell reporter (NFκB signaling)

>>> experimental_result("8B4 (antibody, IgG1, V domains shown, mIgG1) VH: QVQLQQSGAELARPGASVKLPCKASGYTFTSYGISWVKQRTGQGLEWIGEIYPRSGTTYYNEKFKGKATLTADKSSSTAYMELRSLTSEDSAVYFCARRISSGSGVDYWGQGTTLTVSS VL: DIQMTQTTSSLSASLGDRVTISCSASQGISNYLNWYQQKPDGTVKLLIYYTSSLHSGVPSRFSGSGSGTDYSLTISNLEPEDIATYYCQQYSELPWTFGGGTKLEIK")
"24 % inhibition"
>>> experimental_result("16H2 (antibody, IgG1, V domains shown, mIgG1) VH: EVQLQQSGPELVQPGASVKISCKASGYTFTDYYMIWVKQSHGKSLEWIGNINPNNGGTTYNQKFKGKATLTVDKSSSTAYMGLPSLTSEDSAVYYCARGGLRPLYFDYWGQGTTLTVSS VL: NIVMTQSPKSMSMSVGERVTLSCKASENVDTYVSWYQQKPEQSPKLLIYGASNRYTGVPDRFTGSGSATDFTLTISSVQAEDLADYHCGQSYSYPLTFGAGTKLELI")
"29 % inhibition"
>>> experimental_result("6.2 (antibody, IgG1, V domains shown, mIgG1; also called clone 6.2; parent clone 6.2) VH: EVKLVESGGGLVKPGGSLKLSCAASGFTLSSYGMSWVRQIPEKRLEWVASIRSDGNTYYPDSVKGRFIISRDNARNILYLQMSSLRSEDTAMYYCTRGGYYGSSPYYWGQGTTLTVSS VL: DIVMSQSPSSLPVSVGEKISMTCKSSQSLLYSSNQKNYLAWYQQKPGQSPKLLIYWASTRDSGVPDRFIGSGSGTDFTLTINSVKAEDLAVYYCQQYYNYLTFGAGTKLELK")
"26 % inhibition"
